System: IGROV-1
Assay: NCI tumour cell line growth inhibition, 48 h
The source made the active and inactive calls. No stated cut-off is given here; in the data, active = GI50 up to about 1.1 µM and inactive = higher.
measure: GI50

[[record]]
compound = "COC(=O)[C@@H]1C(=O)O[C@@H](c2cc(OC)c(OC)cc2OC)[C@@H]1C(=O)OC.COC(=O)[C@H]1C(=O)O[C@@H](c2cc(OC)c(OC)cc2OC)[C@@H]1C(=O)OC"
measure = "GI50"
observed = "> 100 µM (inactive)"

[[record]]
compound = "CC1(C)C2CCC3(C2)CS(=O)(=O)N2OC231 (centres undefined)"
measure = "GI50"
observed = "19.5 µM (inactive)"

[[record]]
compound = "NC(CCCCNCc1ccccc1O)C(=O)O (centres undefined)"
measure = "GI50"
observed = "> 100 µM (inactive)"

[[record]]
compound = "FC(F)(F)c1ccc(C2=N/S(c3ccccc3)=N\\C(c3ccc(C(F)(F)F)cc3)=N/S(c3ccccc3)=N\\2)cc1 (centres undefined)"
measure = "GI50"
observed = "> 100 µM (inactive)"

[[record]]
compound = "CCc1cccc(C)c1NC(=O)CCc1n[nH]c(=S)o1"
measure = "GI50"
observed = "> 100 µM (inactive)"

[[record]]
compound = "O=C(/C=C/c1ccccc1)NC1C=Nc2ccc([N+](=O)[O-])cc2NC1=O (centres undefined)"
measure = "GI50"
observed = "> 100 µM (inactive)"

[[record]]
compound = "O=C(Cc1nc2ccccc2s1)C(=O)Nc1ccc(Cl)cc1"
measure = "GI50"
observed = "> 100 µM (inactive)"

[[record]]
compound = "CCSC1=CC2(O)N(CCc3ccc(OC)c(OC)c3)C(=O)CC2(C(=O)OC)CC1=O (centres undefined)"
measure = "GI50"
observed = "18.2 µM (inactive)"

[[record]]
compound = "COc1c(Sc2c(SCSc3cnc4ccccc4c3Sc3cnc4ccccc4c3OC)cnc3ccccc23)cnc2ccccc12"
measure = "GI50"
observed = "8.13 µM (inactive)"


* * *

Tested on: OVCAR-4
Experiment: NCI tumour cell line growth inhibition, 48 h
The source made the active and inactive calls. No stated cut-off is given here; in the data, active = GI50 up to about 1.1 µM and inactive = higher.
measure: GI50

[[record]]
compound = "O=C(CCNC(=O)OCc1ccccc1)OCCCNC(=O)OCc1ccccc1"
measure = "GI50"
observed = "> 100 µM (inactive)"

[[record]]
compound = "COC(=O)c1c2c(cc3c1CC1(Cc4ccccc4C1=O)C3)CCC2 (stereo not given)"
measure = "GI50"
observed = "36.1 µM (inactive)"

[[record]]
compound = "COc1ccc(Cn2c3c(cc(OC(C)=O)c2=O)Cc2ccccc2-3)cc1"
measure = "GI50"
observed = "9.95 µM (inactive)"

[[record]]
compound = "CC1CC[C@@]2(OC1)OC1C[C@H]3[C@@H]4CC[C@H]5CC(OC6OC(CO)C(O)C(OC7OC(CO)C(OC8OC(CO)C(O)C(OC9OC(CO)C(O)C(O)C9O)C8OC8OC(CO)C(O)C(O)C8O)C(O)C7O)C6O)[C@H](O)CC5(C)[C@H]4CCC3(C)C1[C@@H]2C (stereo not given in full)"
measure = "GI50"
observed = "2.4 µM (inactive)"

[[record]]
compound = "CCOC(=O)c1c(/C=N\\Nc2ccccc2)nc2ccccc2c1-c1ccccc1"
measure = "GI50"
observed = "29.9 µM (inactive)"


* * *

System: T47D
Assay: NCI tumour cell line growth inhibition, 48 h
The source made the active and inactive calls. Cut-off read from the data, not from the text of the source: active = GI50 up to about 1.1 µM and inactive = higher.
Outcome codes: active, inactive

[[record]]
compound = "C=CCn1c(-c2ccc(/N=N/Nc3ccc(-c4n[nH]c(=S)n4CC=C)cc3)cc2)n[nH]c1=S"
answer_label = "active"

[[record]]
compound = "CN(C)CCCc1cccc2[nH]c3c(c12)CN(C)CC3"
answer_label = "inactive"

[[record]]
compound = "CC1=CC2C(O1)C1C(=O)C=CC(=O)C1=CC2[N+](=O)[O-] (centres undefined)"
answer_label = "inactive"

[[record]]
compound = "CCOC(=O)/C(Cl)=C(\\C)Nc1nc2c(ccc3ccccc32)s1"
answer_label = "inactive"

[[record]]
compound = "CN(CC(=O)O)CC(=O)O"
answer_label = "inactive"

[[record]]
compound = "CC1CC[C@@]2(OC1)OC1C[C@H]3[C@@H]4CC[C@H]5CC(OC6OC(CO)C(O)C(OC7OC(CO)C(OC8OC(CO)C(O)C(OC9OC(CO)C(O)C(O)C9O)C8OC8OC(CO)C(O)C(O)C8O)C(O)C7O)C6O)[C@H](O)CC5(C)[C@H]4CCC3(C)C1[C@@H]2C (some centres undefined)"
answer_label = "inactive"

[[record]]
compound = "COc1cccc(CC(C)NCC(O)c2ccc(O)c(O)c2)c1 (centres undefined)"
answer_label = "inactive"

[[record]]
compound = "CC(=O)OCC1OC(N2C(c3ccccc3)=CC(c3ccccc3)C(C#N)=C2S)C(OC(C)=O)C(OC(C)=O)C1OC(C)=O (centres undefined)"
answer_label = "inactive"

[[record]]
compound = "CC[C@]1(O)CC(OC2CC(N(C)C)C(O)C(C)O2)c2c(cc3c(c2O)C(=O)c2c(O)cccc2C3=O)[C@@H]1C(=O)OC (some centres undefined)"
answer_label = "active"

[[record]]
compound = "Cc1ccc(S(=O)(=O)NNC(=O)Nc2ccc(Cl)cc2)cc1"
answer_label = "inactive"

[[record]]
compound = "Clc1ccccc1-c1nn2c(CCCCCCCCc3nnc4sc(-c5ccccc5Cl)nn34)nnc2s1"
answer_label = "inactive"

[[record]]
compound = "COc1cc(C)c(S(=O)(=O)N(CCCN)OCCCN)c(C)c1C"
answer_label = "inactive"

[[record]]
compound = "N#Cc1c(NC(=S)Nc2ccccc2)sc2c1CCCC2"
answer_label = "inactive"

[[record]]
compound = "COc1ccc(/C(Cl)=C(\\C#N)c2ccc(OC)c(OC)c2)cc1OC"
answer_label = "inactive"

[[record]]
compound = "CC(C)OC(=O)c1ccc(CCC2=CC(=O)C(Br)=CC2=O)cc1"
answer_label = "inactive"

[[record]]
compound = "CCOC(=O)COc1ccc2c(C)cc(=O)oc2c1"
answer_label = "inactive"

[[record]]
compound = "CCOc1cc(NC(C)=O)ccc1C(=O)NN1C(=O)CSC1c1ccc(O)c(OC)c1 (centres undefined)"
answer_label = "inactive"

[[record]]
compound = "Cc1cc(=O)oc2c(C)c3oc(CBr)cc3cc12"
answer_label = "inactive"

[[record]]
compound = "CC(C)(C)OC(=O)NC(Cc1ccc(OC(C)(C)C)cc1)C(=O)N[C@H]1CCC[C@H]1C(=O)NC(Cc1ccccc1)C(=O)N1CCCC1C(N)=O (some centres undefined)"
answer_label = "inactive"


* * *

Tested on: U-251
Assay: NCI tumour cell line growth inhibition, 48 h
Calls of active or inactive are those of the source. No stated cut-off is given here; in the data, active = GI50 up to about 1.1 µM and inactive = higher.
Catalogue of compounds with associated GI50
measure: GI50

[[record]]
compound = "CC(=O)C(CN1CCCCC1)C(c1ccccc1)c1c(O)c2ccccc2oc1=O (stereo not given)"
measurement_target = "U-251"
observed = "> 100 µM (inactive)"

[[record]]
compound = "CN(O)C(=O)CCC(NC(=O)CCC(N)C(=O)O)C(=O)NCC(=O)O (stereo not given)"
measurement_target = "U-251"
observed = "> 100 µM (inactive)"

[[record]]
compound = "O=c1c2cccnc2ncn1CCCN1CCOCC1"
measurement_target = "U-251"
observed = "> 100 µM (inactive)"

[[record]]
compound = "CN(C)CCCc1cccc2[nH]c3c(c12)CN(C)CC3"
measurement_target = "U-251"
observed = "> 100 µM (inactive)"

[[record]]
compound = "CC(C)N1CCN(c2ccc(OCC3COC(Cn4cncn4)(c4ccc(Cl)cc4Cl)O3)cc2)CC1 (stereo not given)"
measurement_target = "U-251"
observed = "12.9 µM (inactive)"


* * *

Tested on: RXF 393
Assay: NCI tumour cell line growth inhibition, 48 h
Calls of active or inactive are those of the source. Cut-off read from the data, not from the text of the source: active = GI50 up to about 1.1 µM and inactive = higher.
measure: GI50

[[record]]
compound = "C[N+](C)([O-])Cc1cccc(NC(=O)c2ccc(C(=O)Nc3cccc(C[N+](C)(C)[O-])c3)cc2)c1"
measure = "GI50"
observed = "> 100 µM (inactive)"

[[record]]
compound = "COC(=O)C1=C(O)c2cc(-c3ccccc3)c(-c3ccccc3)c(C#N)c2NC(=O)C1"
measure = "GI50"
observed = "1.7 µM (inactive)"

[[record]]
compound = "CC(=O)Oc1ccc(/C=C/C(=O)NCC(NC(=O)/C=C/c2ccc(OC(C)=O)c(OC(C)=O)c2)C(=O)O)cc1OC(C)=O (centres undefined)"
measure = "GI50"
observed = "> 100 µM (inactive)"

[[record]]
compound = "COc1ccc2nc(-n3c(/C=C/c4ccccc4O)nc4ccccc4c3=O)sc2c1"
measure = "GI50"
observed = "71.6 µM (inactive)"

[[record]]
compound = "Cn1c(N=P(c2ccccc2)(c2ccccc2)c2ccccc2)c([N+](=O)[O-])c(=O)n(C)c1=O"
measure = "GI50"
observed = "> 100 µM (inactive)"

[[record]]
compound = "CC(=O)c1cccc(NC(=O)/C(=N\\NC(C)(C)C)c2c(O)c3ccccc3oc2=O)c1"
measure = "GI50"
observed = "> 100 µM (inactive)"

[[record]]
compound = "CCO/C=N\\c1c(C#N)c(-c2ccc(Cl)cc2)cn1-c1ccc(C)cc1"
measure = "GI50"
observed = "> 100 µM (inactive)"

[[record]]
compound = "N#Cc1c(-c2ccccc2)cc(Nc2ccc(Cl)cc2)n2c1nc1ccccc12"
measure = "GI50"
observed = "4.35 µM (inactive)"

[[record]]
compound = "COc1cc(/C=C/c2nc(NC(=S)Nc3ccccc3)nnc2C)cc(OC)c1OC"
measure = "GI50"
observed = "23.6 µM (inactive)"

[[record]]
compound = "CSc1nc(C)cc(N(C)c2ccccc2)n1"
measure = "GI50"
observed = "31 µM (inactive)"

[[record]]
compound = "O=c1[nH]nc(-c2ccccc2)n1/N=C/c1ccccc1O"
measure = "GI50"
observed = "29.7 µM (inactive)"

[[record]]
compound = "COC(=O)c1c2c(cc3c1CC1(Cc4ccccc4C1=O)C3)CCC2 (centres undefined)"
measure = "GI50"
observed = "19.5 µM (inactive)"

[[record]]
compound = "N#CCc1ccc(C(C#N)/C(CCCC(=O)Nc2cccc([N+](=O)[O-])c2)=N\\NC(=O)NN)cc1 (centres undefined)"
measure = "GI50"
observed = "> 100 µM (inactive)"

[[record]]
compound = "FC(F)(F)c1ccc(C2=N/S(c3ccccc3)=N\\C(c3ccc(C(F)(F)F)cc3)=N/S(c3ccccc3)=N\\2)cc1 (centres undefined)"
measure = "GI50"
observed = "> 100 µM (inactive)"

[[record]]
compound = "CC(C)CC(CNC(Cc1ccc(Cl)cc1)C(N)=O)NC(=O)C(Cc1c[nH]cn1)NC(=O)CNC(=O)C(NC(=O)C(C)NC(=O)C(Cc1c[nH]c2ccccc12)NC(=O)C(CCC(=O)O)NC(=O)C(N)Cc1ccccc1)C(C)C (centres undefined)"
measure = "GI50"
observed = "> 133 µM (inactive)"

[[record]]
compound = "Nc1nc2c(c(=O)[n-]1)[n+](CCO)cn2C1OC(CO)C(O)C1O (centres undefined)"
measure = "GI50"
observed = "> 100 µM (inactive)"

[[record]]
compound = "O=C1/C(=C\\Oc2ccc(F)cc2)N2CCC1CC2"
measure = "GI50"
observed = "25.1 µM (inactive)"

[[record]]
compound = "O=C1C(Cl)=C(NCCN2CCOCC2)C(=O)c2ncccc21"
measure = "GI50"
observed = "1.95 µM (inactive)"

[[record]]
compound = "CCCCN1C(=O)N(c2ccc(OCC)cc2)C2N(CCCC)C1C(C)(C)C2(C)C (centres undefined)"
measure = "GI50"
observed = "16.3 µM (inactive)"

